assay_details: Toxicity liver stage against HepG2, at 10uM
Format: cell-based
Design: test concentration 10 uM, cell line HepG2-A16-CD81EGFP
run_conditions: human, HepG2-A16-CD81EGFP cells; read-out: INHIBITION
outcome_measure: cytotoxicity at 10 µM (%)
Give the value in % but do not write % after it.

Supply cytotoxicity at 10 µM value. Item: Cc1nn(C)c(C)c1CCC(=O)N(C)Cc1ccc(C#N)cc1
-2.45

Supply cytotoxicity at 10 µM value. Item: c1ccc(COCC2CN(Cc3ccsc3)Cc3nccn3C2)nc1 (stereo unspecified)
-69.6

Supply cytotoxicity at 10 µM value. Item: CNc1cncc(C2CCCN2Cc2ccccn2)n1 (stereo unspecified)
0.0241

Supply cytotoxicity at 10 µM value. Item: NC(=O)c1ccnc(N2CCN(Cc3ccc(F)cc3Cl)CC2)c1
40.8

Supply cytotoxicity at 10 µM value. Item: COCC1CC2(CCN(C(=O)c3ccccc3C)CC2)CN1C(C)C (stereo unspecified)
7.77

Supply cytotoxicity at 10 µM value. Item: Cc1ccoc1C(=O)NC1CCN(Cc2ccccc2F)CC1
-14.1

###

assay_details: Toxicity liver stage against HepG2, at 10uM
Type: cell-based
Set-up: test concentration 10 uM, cell line HepG2-A16-CD81EGFP
run_conditions: human, HepG2-A16-CD81EGFP cells; read-out: INHIBITION
# key: entry, value: cytotoxicity at 10 µM
Give the value in % but do not write % after it.

Supply cytotoxicity at 10 µM value. Item: N#Cc1c(Cl)nsc1NCCN1CCOCC1
9.64

Supply cytotoxicity at 10 µM value. Item: Cc1ccsc1C(=O)N1CCC2(CC1)C(=O)N(C)CCN2CC1CC1
-110

Supply cytotoxicity at 10 µM value. Item: COCC(c1cccc(C(F)(F)F)c1)N(C)C(=O)c1cc(C)no1 (stereo not given)
0.0161

Supply cytotoxicity at 10 µM value. Item: Cc1nc(CN(C)C2CCN(CC3CCC3)C2)no1 (stereo not given)
-8.19

Supply cytotoxicity at 10 µM value. Item: COCCN1CCCC(CN(C)c2nc3c(s2)c(C)nn3C)C1 (stereo not given)
5.37

Supply cytotoxicity at 10 µM value. Item: CC(C)(C)NC(=O)CNC(=O)CCc1ccccc1Br
3.09

###

assay_details: Toxicity liver stage against HepG2, at 10uM
Assay type: cell-based
Design: test concentration 10 uM, cell line HepG2-A16-CD81EGFP
run_conditions: human, HepG2-A16-CD81EGFP cells; read-out: INHIBITION
# key: entry, value: cytotoxicity at 10 µM
Give the value in % but do not write % after it.

Supply cytotoxicity at 10 µM value. Item: CCn1c(CN(C)Cc2cnc(C)s2)nc2cc(F)ccc21
-31.9

Supply cytotoxicity at 10 µM value. Item: CC(C)N1CCC(c2ccnc3c(C(=O)N4CCOCC4)ncn23)CC1
-5.89

Next:
Supply cytotoxicity at 10 µM value. Item: Cc1c[nH]c(C2CCCN(Cc3ccccc3C(=O)O)C2)n1 (stereo unspecified)
-3.3

Supply cytotoxicity at 10 µM value. Item: Cc1nn(C)c(Cl)c1C1CCCN1C(=O)c1cc(C2CC2)on1 (stereo unspecified)
-13.3

Supply cytotoxicity at 10 µM value. Item: CCn1cc2c(n1)CN(S(=O)(=O)Cc1ccccc1)CC2COC (stereo unspecified)
10.6

Supply cytotoxicity at 10 µM value. Item: Cc1ccc(CN(C(=O)NCC2CCS(=O)(=O)C2)C2CC2)o1 (stereo unspecified)
-144

###

assay_details: Toxicity liver stage against HepG2, at 10uM
Format: cell-based
Parameters: test concentration 10 uM, cell line HepG2-A16-CD81EGFP
run_conditions: human, HepG2-A16-CD81EGFP cells; read-out: INHIBITION
# key: entry, value: cytotoxicity at 10 µM

Use these answered entries as a reference point.
Supply cytotoxicity at 10 µM value. Item: CN(Cc1ccc(Cl)s1)C(=O)NCCN1CCCCCC1=O
-0.509%

Supply cytotoxicity at 10 µM value. Item: Cc1cc(C)nc(N2CCN(Cc3nccn3C)CC2)n1
-20.9%

Supply cytotoxicity at 10 µM value. Item: N#Cc1ccccc1NC(=O)c1ccc2c(c1)OCO2
-10.4%

Supply cytotoxicity at 10 µM value. Item: C[C@@]1(O)CCN(Cc2cc[nH]n2)C[C@H]1Oc1cccc(F)c1
-6.86%

Supply cytotoxicity at 10 µM value. Item: CCOCC1CN(Cc2ccc(F)cc2)Cc2nn(C)cc21 (configuration not stated)
-83.3%

Supply cytotoxicity at 10 µM value. Item: COC(=O)[C@H](CCSC)NC(=O)Cn1ccc2c(Cl)cccc21
2.17%

Next:
Supply cytotoxicity at 10 µM value. Item: Cc1ccc(-c2cn3c(n2)CO[C@@H](CNCc2cccnc2)C3)cc1
-105%

Supply cytotoxicity at 10 µM value. Item: COc1ccccc1CNCCc1cccc(C(N)=O)c1
3.65%

Supply cytotoxicity at 10 µM value. Item: CC(C)(C)C(O)CN1CCN(C(=O)COCC2CC2)CC1 (configuration not stated)
5.54%

###

# key: entry, value: cytotoxicity at 10 µM
assay_details: Toxicity liver stage against HepG2, at 10uM
Type: cell-based
Set-up: test concentration 10 uM, cell line HepG2-A16-CD81EGFP
run_conditions: human, HepG2-A16-CD81EGFP cells; read-out: INHIBITION

Supply cytotoxicity at 10 µM value. Item: CC(C)(C)c1ccc(CN2C[C@H]3CC(O)C[C@H]3C2)c(OCC(N)=O)c1 (stereo partly drawn)
2.71%

Supply cytotoxicity at 10 µM value. Item: CCOc1ncccc1NC(=O)N1CCN(c2ccc(O)cc2)CC1
-9.92%

Supply cytotoxicity at 10 µM value. Item: Cn1cc(C2CCCN2C(=O)CCCc2ccccn2)cn1 (stereo not drawn)
-0.222%

Supply cytotoxicity at 10 µM value. Item: CCn1nc(C)c2nc(C(C)C)nc(NCCc3ccc(O)cc3)c21
18.1%

Supply cytotoxicity at 10 µM value. Item: Cn1ncc2c(N[C@@H]3C[C@H]4CC[C@@H]3C4)nc(-c3ccncc3)nc21
5.89%

Supply cytotoxicity at 10 µM value. Item: Cc1ccc(-c2nc(CNCC3CN(C)CCO3)co2)cc1 (stereo not drawn)
-14.4%

Supply cytotoxicity at 10 µM value. Item: Cc1cc(C[C@@H]2COC[C@@H]2NC(=O)CN2CCc3ccccc3C2)on1
6.7%

Supply cytotoxicity at 10 µM value. Item: CC(C)C(=O)NC1CCCN(C(=O)c2cc(Cl)ccc2O)C1 (stereo not drawn)
-11.4%

Supply cytotoxicity at 10 µM value. Item: Cn1cc(S(=O)(=O)N(CC(F)(F)F)C2CC2)cc1C(N)=O
-5.02%

Supply cytotoxicity at 10 µM value. Item: c1ccc(CCN2CCn3cc(Cn4cccn4)nc3C2)cc1
-1.98%

###

assay_details: Toxicity liver stage against HepG2, at 10uM
Type: cell-based
Design: test concentration 10 uM, cell line HepG2-A16-CD81EGFP
run_conditions: human, HepG2-A16-CD81EGFP cells; read-out: INHIBITION
# key: entry, value: cytotoxicity at 10 µM
Give the value in % but do not write % after it.

Use these answered entries as a reference point.
Supply cytotoxicity at 10 µM value. Item: COCCN1CCO[C@@H]2CN(C(=O)Cc3ccccc3)CC[C@@H]2C1
4.98

Supply cytotoxicity at 10 µM value. Item: CCOC(=O)CNC(=O)c1cccnc1Sc1cc(OC)ccc1OC
1.73

Supply cytotoxicity at 10 µM value. Item: COc1ccnc(NC(=O)CSCc2cccnc2)c1
-47.2

Supply cytotoxicity at 10 µM value. Item: CC(c1nnc(-c2cccs2)o1)N1CCn2c(nnc2C2CC2)C1 (configuration not stated)
17.7

Supply cytotoxicity at 10 µM value. Item: CCOc1ncccc1Cn1cc(-c2nccn2C)nn1
-1.38

Next:
Supply cytotoxicity at 10 µM value. Item: CNC(=O)c1nc(CN2CCOC(Cc3ccc(F)cc3)C2)no1 (configuration not stated)
-2.28

Supply cytotoxicity at 10 µM value. Item: CC1=C(c2ccc(C(C)C)cc2)S(=O)(=O)N=C1N1CCc2ccccc21
-16.8

Supply cytotoxicity at 10 µM value. Item: COCCN1C(=O)C[C@H]2[C@H]1CCN2Cc1ccc(OC)cc1
1.47

Supply cytotoxicity at 10 µM value. Item: Cc1nc(-c2cc(C(=O)NC(C)(C(=O)O)C(C)C)co2)cs1 (configuration not stated)
1.84

###

assay_details: Toxicity liver stage against HepG2, at 10uM
Assay type: cell-based
Design: test concentration 10 uM, cell line HepG2-A16-CD81EGFP
run_conditions: human, HepG2-A16-CD81EGFP cells; read-out: INHIBITION
outcome_measure: cytotoxicity at 10 µM (%)
Give the value in % but do not write % after it.

Supply cytotoxicity at 10 µM value. Item: O=C1NCC2=Nc3ccccc3NC(c3ccc(O)cc3)C12 (stereo not drawn)
3.63

Supply cytotoxicity at 10 µM value. Item: CCN1CCN(C2CCN(C(C(N)=O)c3ccccc3)CC2)C1=O (stereo not drawn)
-10.3

Supply cytotoxicity at 10 µM value. Item: Cn1cnnc1C1CCN(c2cncc(-n3cccn3)n2)CC1
-8.37

Supply cytotoxicity at 10 µM value. Item: CCN(CC)Cc1nc2c(o1)CN(C(=O)c1ccc3[nH]ccc3c1)C2
7.07

Supply cytotoxicity at 10 µM value. Item: N#Cc1ccc(C(=O)N2CCn3cc(CN4CCCCC4)nc3C2)cc1
-84.7

Next:
Supply cytotoxicity at 10 µM value. Item: CSCc1cccc(S(=O)(=O)N2CCCCC2)c1
6.61

Supply cytotoxicity at 10 µM value. Item: COc1ccc(C(=O)NCCN(C)C)c(I)c1
-1.93

Supply cytotoxicity at 10 µM value. Item: O=C(Nc1cnn(CC(=O)N2CCCO2)c1)c1ccccc1
-0.134

Supply cytotoxicity at 10 µM value. Item: CN(C)C(=O)c1cncnc1-c1ccc(CNC(=O)C2CCCO2)cc1 (stereo not drawn)
5.55

Supply cytotoxicity at 10 µM value. Item: CCN(C)CC1CCN(S(=O)(=O)c2cc(C)c(F)cc2Cl)C1 (stereo not drawn)
-8.38

Supply cytotoxicity at 10 µM value. Item: O=C(O)CN1CCC(F)(F)C2(CCN(c3ccccn3)C2)C1 (stereo not drawn)
1.78

Supply cytotoxicity at 10 µM value. Item: O=C(CC[C@@H]1CCCN2CCCC[C@H]12)NCCc1nc(O)cc(O)n1
-0.392

Supply cytotoxicity at 10 µM value. Item: CC(C)CCn1[nH]c(CNc2ccc(F)cc2)nc1=O
11.3

Supply cytotoxicity at 10 µM value. Item: Clc1ccc(C(CNCc2ccncc2)n2cccn2)cc1 (stereo not drawn)
6.73

Supply cytotoxicity at 10 µM value. Item: CCc1cc(NCCCc2nc(C)no2)nc(-c2ccncc2)n1
2.63

Supply cytotoxicity at 10 µM value. Item: Nc1cc(-c2cccc3c2CCNC3)ncn1
-8.27

Supply cytotoxicity at 10 µM value. Item: c1nc(-c2nc(C3CCOC3)no2)cs1 (stereo not drawn)
6.18

Supply cytotoxicity at 10 µM value. Item: CCN1C(=O)CCC12CCN(S(=O)(=O)c1ccc(C#N)cc1)CC2
1.82

Supply cytotoxicity at 10 µM value. Item: Cc1noc(C2CCN(C(C)c3nc(C4CC4)no3)CC2)n1 (stereo not drawn)
7.57

Supply cytotoxicity at 10 µM value. Item: CN(C)c1cccc(C(=O)N2CCC(c3n[nH]c(C4CC4)n3)CC2)c1
-11.2

Supply cytotoxicity at 10 µM value. Item: O=C(Nc1ccccc1)N1C[C@@H]2C[C@H](C(=O)N3CCCC3)[C@H](C1)O2
-3.29

Supply cytotoxicity at 10 µM value. Item: Cc1ncsc1CCC(=O)NCc1csc(N2CCCC2)n1
-2.56

Supply cytotoxicity at 10 µM value. Item: COC(=O)Cn1c(=O)[nH]c2cn(-c3ccc(Br)cc3)c(=O)n21
1.4

Supply cytotoxicity at 10 µM value. Item: Cc1c(-c2ccccc2)ncn1CCCNc1cccnc1
2.06

Supply cytotoxicity at 10 µM value. Item: CCc1ccc(C(C)NC(=O)c2ccc(CS(C)(=O)=O)o2)cc1 (stereo not drawn)
-3.07

Supply cytotoxicity at 10 µM value. Item: Cc1ccc(O[C@@H]2C[C@H]3CN(C(=O)c4cccnc4)CCN3C2)cc1
1.06
